Consider compounds characterized by their IC50 with Sodium-dependent serotonin transporter (Rattus norvegicus, UniProt P31652).
Sequence (P31652 whole entry): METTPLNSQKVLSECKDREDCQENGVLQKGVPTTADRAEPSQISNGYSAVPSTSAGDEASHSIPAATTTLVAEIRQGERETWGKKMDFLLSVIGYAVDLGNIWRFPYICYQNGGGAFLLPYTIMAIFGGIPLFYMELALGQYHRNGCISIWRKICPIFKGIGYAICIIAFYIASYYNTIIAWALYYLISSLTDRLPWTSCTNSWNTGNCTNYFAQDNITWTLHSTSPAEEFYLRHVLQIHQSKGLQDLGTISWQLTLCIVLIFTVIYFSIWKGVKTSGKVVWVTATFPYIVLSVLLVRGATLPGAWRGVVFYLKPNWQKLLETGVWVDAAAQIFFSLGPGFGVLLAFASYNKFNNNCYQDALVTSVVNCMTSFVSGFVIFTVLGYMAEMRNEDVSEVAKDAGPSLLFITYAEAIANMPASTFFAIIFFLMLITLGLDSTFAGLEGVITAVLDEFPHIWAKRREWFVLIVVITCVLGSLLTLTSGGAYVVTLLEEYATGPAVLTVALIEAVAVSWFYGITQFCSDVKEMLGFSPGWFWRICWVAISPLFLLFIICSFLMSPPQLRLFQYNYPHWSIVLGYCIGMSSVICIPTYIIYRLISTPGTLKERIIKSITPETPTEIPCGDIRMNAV
Response body: numeric value in µM, unit text excluded.

Examples with answers:
query: Record CCN(CC)C(=O)C1C(c2ccc(C)cc2)CC2CCC1N2C (stereo unspecified) : what is its IC50 with Sodium-dependent serotonin transporter (Rattus norvegicus, UniProt P31652)?
result: 33.9

query: Record Cc1ccc(C2CC3CCC(C2C(=O)Oc2ccc(Cl)cc2)N3C)cc1 (stereo unspecified) : what is its IC50 with Sodium-dependent serotonin transporter (Rattus norvegicus, UniProt P31652)?
result: 42.8

query: Record CN(C)C(=O)C1C(OC(=O)c2ccccc2)CC2CCC1N2C (stereo unspecified) : what is its IC50 with Sodium-dependent serotonin transporter (Rattus norvegicus, UniProt P31652)?
result: 144

query: Record CN1C2CCC1C(C(N)=O)C(c1ccc(Cl)cc1)C2 (stereo unspecified) : what is its IC50 with Sodium-dependent serotonin transporter (Rattus norvegicus, UniProt P31652)?
result: 1.62

query: Record CN(C)C(=O)C1C(c2ccc(Cl)cc2)CC2CCC1N2C (stereo unspecified) : what is its IC50 with Sodium-dependent serotonin transporter (Rattus norvegicus, UniProt P31652)?
result: 1.08

// next item, IC50 requested
query: Record COC(=O)C1C(c2ccc(Cl)c(Cl)c2)CC2CCC1N2C (stereo unspecified) : what is its IC50 with Sodium-dependent serotonin transporter (Rattus norvegicus, UniProt P31652)?
result: 0.00313
